Hello, the source for this data is the supplement of paper PMC12636428, in case you need it.

System: Saccharomyces cerevisiae
Assay Remarks: transcriptional activation domain activity (GFP:mCherry ratio, weighted mean of sorted bins, harmonized to initial dataset scale) (arbitrary fluorescence ratio units); higher = stronger transcriptional activation
Settings: beta-estradiol 1 µM; induction time 4 h
Reported Endpoint: transcriptional activation domain activity
One number for each entry.

{"columns": ["Seq String", "Recorded Measurement"],
 "data": [
  ["MIQTPLFYYLFYILFYFIFIFIYSLLGFFLIFYLFVLFSFHFCFPPPPPFSFF", 46900],
  ["AGEKADAPNGEGAGEGNRRRPSGRGRGRGRGGRGARNGRDGAQEEGAEAAAAP", 14300],
  ["MCVFHFLPWLLFPSPLISLFFVFFILFSFFVFFFLVPSSCPSFISFFPVSCLF", 38000],
  ["MFFCSFFRWGFIFFFSFLFFSFILLCWCFLVFLNFATDPACNLPFSFLVFIPR", 57600],
  ["SGKLVFGPVSVFNGNVSLRIKKPLKGMTLTVTFNGVAEVDKYLFTFLNISHEV", 57800]
]}

Could you tell me transcriptional activation domain activity for each of these sequences? They are listed below.
1. MMLVQSIPVSRDVILGVLLRLLAPTVFLSSVVLALLLVSTLCKIPKQGRLRAW
2. MNHTSRFFSPFFLFSLFLSFPSFLLPCFLLLFLFLPFLPPSLSLLSLILYKFW
3. ETIHGPAPATSFDDTNFTWQLFDESPGFDPLAQLQSFSDFGLSGHDLLFGFMD
4. GAVINLSLSLGRRTQVEEAIKLVRYKAHYVSGSIDHGLHRLLVWAYTLLTVRI
5. MIHSAIIAWYCVFGLVFLLIVICIFHQFSSHRSSPWYFIQNWTRAFGFLSYIL
6. MDSGGRLEVHLFFFLLLFVQMWFSWVYFLFSLVFLTLLTRDLGGLLLLVYSFC

Data returned:
64600
31900
123000
57100
66700
34700

Could you tell me transcriptional activation domain activity for each of these sequences? They are listed below.
1. VKPRPLPLPVLIAKALREKGLVYFFRSVRVSGSGTAEVVRGKWYMNFLPTLAR
2. MNQHYGFLNCDLFFYFFFSSLFLIWPFLLFSFSFTVFPYLFTIMETYFGHIKT
3. SSSAESSKASSSKKVASTKPKSKSAGTKAKPAAKKPAKKAAPKKKKPAKRAAK
4. MIYGWSIFFFFFFFALHVYIRVFLWGRFCLRVVWVRLFLFHFSGWGCNFGGFV
5. PLVVFPNFMAVVIIFGFFFMYFEDFNKEVFLHNKHHQIWVYLHFPLHLCQVAF
6. LLRSRAYDDPAVFRIISALFQVPMRHKKNSVRGLLCVVWRVITWVYFQPRLPW
7. IWRRQQVELWCNYRVPGRQWLFGHKRLRHVIHLIPGRTHLSLYSSVDRIFCLH
8. FCMLNHWYARSWGTYLWLGLLLTDLDVTYKYKKWLYAHPGTYYPLLTFAWLCV

Data returned:
73200
28700
34500
49700
78400
54600
48600
63000

Could you tell me transcriptional activation domain activity for each of these sequences? They are listed below.
1. KHRSSINTVLVVGGDDKVVKQAGDALKGKLGVKGGGKGPRWSGKFIGVWKAAR
2. MALYLTFRHCPELFYWVKLRRVSRKIHTFISSIFNIFLYVLMLMNGCIIHHYI
3. EGGEGGDGAGGDGAAAGGKDGEGGKGGGKEEKGGKAGKDAKGGAKKPGSGKKG
4. MTTNRDKAFFFFFNCERPIFNFFFCPFFLFFYIPFYFPYPYFFSFSYFSFLYL
5. KSWYFPSLSFFFFSFLFSFLSFAFLSFFLFFSFPFSLLLLYLFLLGLALTADG
6. ICIPLPFQTLVCSHIVLTPLFYPLFCTPLDIFYVSNYSCLVLVLSLPFHFFLH
7. AAAAREKAEAERKEKAEKEERERLEREKREVEAERKKVAAAAARAEKEKAKAA
8. YLFYRLGLNIREIQLRSRGLILLQSLSVLGWSLLASSFSGLYFIGYPCFIHWW

Data returned:
50100
57200
16500
78200
15600
39400
13400
42700
